Task for the reader: assign each of the following variants its reported sfGFP reporter fluorescence.
B1: library; a variant is named by its letters at X, in order (parent)
chain: MNIQIGELAKRTACPVVTIRFYEQEGLLPPPGRSRGNFRLYGEEHVERLQFIRHCRSLDMPLSXVRTLLSYRKRPDQDCGEVXMLLDEHIRQVESRIGALLELXHHXVELREACSGARPAQSCGILQXLSXCVCXTRGTTAHXSD

Variants of: B1
ASSAY TEXT: sfGFP reporter fluorescence (15 h) (µM FITC); higher = stronger transcriptional activation
MEASUREMENT CONDITIONS: library round: Round 3; ligand: 30 µM Zn
One number for each entry.

DTKLGMPP V108L | 0.187

Here are 5 variants. What values of sfGFP reporter fluorescence were reported for them?
1. DSKLGNRA Q121A
2. KTVLIDDP P61T
3. DNKLGAPY V133A
4. LIVCGAAP V16C H54C C55P H106A
5. DTKLGCDL Q121A

1. 0.945
2. 0.251
3. 0.728
4. 0.0456
5. 0.103
